experimental-protocol: chemical genetic growth profiling, strain panel (AID 1159580);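 note: tested at 20 µM; growth read once vehicle control cultures reached saturation at 30 °C; 1 = growth at the plate median or of vehicle wells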
assay-conditions: S. cerevisiae deletion strains, growth OD, locus YGR252W, strain gcn5
In all, about 5,500 compounds went through this assay and about 2,000 (36%) were called active. Not shown: some 18% with an inconclusive outcome. Cut-off read from the data, not from the text of the source: active = normalized growth mostly below about 0.91 (no sharp cut-off); inconclusive = no clear call, values can overlap the other calls; inactive = mostly above about 0.92. Some of the results follow.
Hi there, use one of these labels in your reply, thanks! active, inactive

compound	group-label
CCCCCCCCCCCCCCCCCC(=O)OC(CC(=O)O)C[N+](C)(C)C (stereo not drawn)	active
COc1cc(OC)c2ccc(=O)oc2c1	inactive
COc1c2ccoc2cc2oc(=O)ccc12	active
C[C@@H]1O[C@@H](OC[C@H]2OC(Oc3c(-c4ccc(O)c(O)c4)oc4cc(O)cc(O)c4c3=O)[C@H](O)[C@@H](O)[C@@H]2O)[C@H](O)[C@H](O)[C@H]1O (stereo partly drawn)	inactive
O=c1c(O)c(-c2ccc(O)c(O)c2)oc2cc(O)cc(O)c12	inactive
COC(=O)[C@@]1(C)CCC[C@]2(C)c3ccc(O)c(C(C)C)c3CCC12 (stereo partly drawn)	inactive
O=c1cc(-c2ccc(O)cc2)oc2cc(O[C@@H]3O[C@H](CO)[C@@H](O)[C@H](O)[C@H]3O)cc(O)c12	inactive
CCCCCc1c2c(cc(O)c1C(=O)O)OC(=O)c1c(cc(OC)cc1C(=O)CCCC)O2	inactive

Q) Would you mind telling me which call this test gave CCc1cccc(CC)c1N(COC)C(=O)CCl ?
A) inactive

Q) So what was the verdict on NC(=NCCC[C@H](N)C(=O)O)N[N+](=O)[O-] in this test?
A) inactive

Q) In this assay, the call recorded for CC(C)c1c(O)ccc2c1CCC1[C@@](C)(CO)CCC[C@]21C (stereo partly drawn) was what?
A) inactive

Q) Per the assay record, what outcome was assigned to COc1ccc2ccc(=O)oc2c1 ?
A) inactive

Q) Per the assay record, what outcome was assigned to O=C(Cc1cccs1)NC1C(=O)N2C(C(=O)[O-])=C(C[n+]3ccccc3)CSC12 (stereo not drawn) ?
A) inactive

Q) Recorded call for CCC(=O)c1c(O)cc(O)cc1O ?
A) inactive

Q) Per the assay record, what outcome was assigned to CC(=O)OC(C)C[N+](C)(C)C (stereo not drawn) ?
A) inactive

Q) // return assay outcome for NC(=O)NCCCC(N)C(=O)O (stereo not drawn)
A) inactive

Q) Could you kindly confirm the outcome this assay logged for C[C@@H]1CC[C@@]2(OC1)O[C@H]1CC3C4CC[C@H]5C[C@@H](O)CC[C@]5(C)C4CC[C@]3(C)[C@H]1[C@@H]2C (stereo partly drawn) ?
A) inactive

----------
experimental-protocol: chemical genetic growth profiling, strain panel (AID 1159580)
assay-conditions: S. cerevisiae deletion strains, growth OD, locus YLR384C, strain iki3
Hit rate of the full screen: of about 5,500 compounds, about 2,000 (36%) were called active. Not shown: some 18% with an inconclusive outcome. Rule as the data show it: active = normalized growth mostly below about 0.91 (no sharp cut-off); inconclusive = no clear call, values can overlap the other calls; inactive = mostly above about 0.92. This is one part of the list.
Select the matching outcome among 1 for active, 0 for inactive

compound	group-label
CCOC(=O)c1c(C)cc(OC)cc1O	0
COC(=O)c1c(C)cc(OC)cc1O	0

Q) Could you kindly confirm the outcome this assay logged for CCCC(C)(COC(N)=O)COC(=O)NC(C)C (configuration not stated) ?
A) 0

Q) How was CCC(=O)c1c(O)cc(O)cc1O classified in this test?
A) 0

Q) Name the outcome recorded for COC(=O)c1c(C)cc(O)cc1O in the assay.
A) 0

Q) Short answer needed: outcome of this test for CC1CCC2(OC1)OC1CC3C4CC[C@H]5C[C@@H](O)CC[C@]5(C)C4CC(=O)[C@]3(C)C1C2C (some centres not stated) ?
A) 0

Q) What was the test verdict on O=C1C=C2C(=CCOC2O)O1 (configuration not stated) ?
A) 1

Q) Please let me know the test result on file for C[C@@H]1CC[C@@]2(OC1)O[C@H]1CC3C4CC[C@H]5C[C@@H](O)CC[C@]5(C)C4CC[C@]3(C)[C@H]1[C@@H]2C (some centres not stated) .
A) 0

----------
experimental-protocol: chemical genetic growth profiling, strain panel (AID 1159580);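 note: tested at 20 µM; growth read once vehicle control cultures reached saturation at 30 °C; 1 = growth at the plate median or of vehicle wells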
assay-conditions: S. cerevisiae deletion strains, growth OD, locus YPL106C, strain sse1, stronger effect = lower value
The whole screen tested about 5,500 compounds, of which about 2,000 (36%) were called active. Roughly 18% stayed inconclusive and do not appear here. The list shows a part of the results.
measurement-name: normalized growth
Could you keep your reply to the number by itself?

molecule	normalized growth
CC(=O)Oc1ccc2c(c1C(C)C)CCC1C(C)(C)CCC[C@]21C (stereo not given in full)	1.02
CC1(C)C2CC(=O)[C@]3(C)C(CC[C@@]4(C)[C@H](c5ccoc5)OC(=O)[C@H]5O[C@]543)[C@@]2(C)C(=O)C[C@H]1O (stereo not given in full)	1.01
CC1(C)C(=O)C=C[C@@]2(C)C1C[C@@H](O)[C@]1(C)C2CC[C@@]2(C)[C@H](c3ccoc3)OC(=O)[C@H]3O[C@]321 (stereo not given in full)	1.03
CC(C)c1c(O)ccc2c1CCC1[C@@](C)(CO)CCC[C@]21C (stereo not given in full)	1.07

Lab note: next molecule to report on.
Q) Answer with the recorded normalized growth of NC(=O)c1ncn([C@@H]2O[C@H](CO)[C@@H](O)[C@H]2O)n1 only.
A) 0.939

----------
experimental-protocol: chemical genetic growth profiling, strain panel (AID 1159580);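 note: tested at 20 µM; growth read once vehicle control cultures reached saturation at 30 °C; 1 = growth at the plate median or of vehicle wells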
assay-conditions: S. cerevisiae deletion strains, growth OD, locus YBR023C, strain chs3
Among all 5,500 compounds or so, about 2,000 (36%) were called active. Another 18% or so got no clear call; they are omitted. Cut-off read from the data, not from the text of the source: active = normalized growth mostly below about 0.91 (no sharp cut-off); inconclusive = no clear call, values can overlap the other calls; inactive = mostly above about 0.92. The list shows a part of the results.
Bench note: report the call from true (active), false (inactive)

Please review the following examples before continuing.
molecule	group-label
CC(=O)Oc1ccc2c(c1C(C)C)CCC1C(C)(C)CCC[C@]21C (stereo not given in full)	false
COc1c2ccoc2cc2oc(=O)ccc12	false
NC(=NCCC[C@H](N)C(=O)O)N[N+](=O)[O-]	false
CC(C)N(CCC(C(N)=O)(c1ccccc1)c1ccccn1)C(C)C (stereo not given)	true
CC(C)c1c(O)ccc2c1CCC1[C@@](C)(CO)CCC[C@]21C (stereo not given in full)	false
COC(=O)[C@]1(C)CCC[C@]2(C)c3ccc(C(C)C)cc3C(=O)CC12 (stereo not given in full)	false
CC1(C)C=CC(=O)[C@@]2(C)C1CC(=O)[C@]1(C)C2CC[C@@]2(C)[C@H](c3ccoc3)OC(=O)C3OC321 (stereo not given in full)	false
CC(C1OC(C)(C)C(O)C1O)[C@@H]1CC[C@]2(C)C3=CCC4C(C)(C)C(=O)CC[C@]4(C)C3CC[C@@]12C (stereo not given in full)	false
CC1(C)C(=O)C=C[C@@]2(C)C1CC(=O)[C@]1(C)C2CC[C@@]2(C)[C@H](c3ccoc3)OC(=O)[C@H]3O[C@]321 (stereo not given in full)	false
CC1(C)O[C@H]2CC(=O)OC[C@]23[C@H]2CC[C@@]4(C)[C@H](c5ccoc5)OC(=O)[C@H]5O[C@]54[C@]2(C)C(=O)C[C@@H]13	false

Q) Answer briefly: the call reported for CC(CC(C(N)=O)(c1ccccc1)c1ccccc1)N(C)C (stereo not given) in this assay.
A) false

Q) Per the assay record, what outcome was assigned to C[C@@H]1CC[C@@]2(NC1)O[C@H]1C[C@H]3C4CC=C5C[C@@H](O)CC[C@]5(C)C4CC[C@]3(C)C1[C@@H]2C (stereo not given in full) ?
A) true

Q) Which result was noted for this molecule in the test: O=c1ccc2c(O)c3ccoc3cc2o1
A) false

Q) Dear all, I need the recorded test outcome for O=C1C=C2C(=CCOC2O)O1 (stereo not given) , thank you.
A) true

Q) In this assay, the call recorded for COC1=CC(=O)C(O)=C/C1=C\C=C\c1ccccc1 was what?
A) true

Q) Each molecule tested received a call. Report the one for CCC(=O)c1c(O)cc(O)cc1O .
A) false

----------
experimental-protocol: chemical genetic growth profiling, strain panel (AID 1159580);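 note: tested at 20 µM; growth read once vehicle control cultures reached saturation at 30 °C; 1 = growth at the plate median or of vehicle wells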
assay-conditions: S. cerevisiae deletion strains, growth OD, locus YJR066W, strain TOR1 (second series), stronger effect = lower value
Hit rate of the full screen: of about 5,500 compounds, about 2,000 (36%) were called active. Inconclusive results (about 18%) are left out. The list shows a part of the results.
Flag rule - normalized growth less than 0.9 flags yes (1); the remaining entries get no (0).

Recorded results for 2 compounds are shown here.
Oc1c(Br)cc(Br)cc1/C=N\n1cnnc1 yes (1)
O=C1Nc2ccccc2/C1=C\c1ccc(Cl)cc1 yes (1)

Q) Determine if O=C1Nc2ccccc2/C1=C/c1ccc(C(F)(F)F)cc1Cl shows normalized growth strictly lower than 0.9.
A) no (0)

Q) Please indicate whether the reported normalized growth of O/N=C(/c1ccc(Cl)cc1)c1cc2ccccc2o1 is strictly below 0.9.
A) yes (1)

Q) Answer whether the compound O=C1Nc2ccccc2/C1=C\c1cccc([N+](=O)[O-])c1 has normalized growth strictly less than 0.9
A) no (0)

Q) normalized growth strictly < 0.9 for this compound? Cc1cc(Oc2ccc(C(F)(F)F)cc2NS(C)(=O)=O)cc(C)c1Cl
A) no (0)
